- System: rodent lifetime carcinogenesis bioassay, tumor incidence TD50
- Assay Procedure: carcinogenic potency in animals, long-term in vivo studies, CPDB compilation (AID 1745844)
- Details: mouse; strain Swiss albino; males; in drinking water; site: bile duct; lesion: several types; types named in the paper; dosed 65 weeks; study length 72 weeks
Assay Readout: TD50

Task item: Given CN(N)C=O , state its recorded TD50.
Reply: 36.2 mg/kg/day

* * *

- Tested on: rodent lifetime carcinogenesis bioassay, tumor incidence TD50
- Assay Procedure: carcinogenic potency in animals, long-term in vivo studies, CPDB compilation (AID 1745844)
- Details: rat; strain Fischer 344; males; inhaled; site: nasal cavity; lesion: papillary adenoma; dosed 103 weeks; study length 104 weeks
Assay Readout: TD50

Task item: # query: TD50 | item CC1CO1 (stereo unspecified) | system: rodent lifetime carcinogenesis bioassay, tumor incidence TD50
Reply: 826 mg/kg/day
